# TARGET UNDER TEST: UniProt:Q12809
# Sequence (Q12809 whole entry): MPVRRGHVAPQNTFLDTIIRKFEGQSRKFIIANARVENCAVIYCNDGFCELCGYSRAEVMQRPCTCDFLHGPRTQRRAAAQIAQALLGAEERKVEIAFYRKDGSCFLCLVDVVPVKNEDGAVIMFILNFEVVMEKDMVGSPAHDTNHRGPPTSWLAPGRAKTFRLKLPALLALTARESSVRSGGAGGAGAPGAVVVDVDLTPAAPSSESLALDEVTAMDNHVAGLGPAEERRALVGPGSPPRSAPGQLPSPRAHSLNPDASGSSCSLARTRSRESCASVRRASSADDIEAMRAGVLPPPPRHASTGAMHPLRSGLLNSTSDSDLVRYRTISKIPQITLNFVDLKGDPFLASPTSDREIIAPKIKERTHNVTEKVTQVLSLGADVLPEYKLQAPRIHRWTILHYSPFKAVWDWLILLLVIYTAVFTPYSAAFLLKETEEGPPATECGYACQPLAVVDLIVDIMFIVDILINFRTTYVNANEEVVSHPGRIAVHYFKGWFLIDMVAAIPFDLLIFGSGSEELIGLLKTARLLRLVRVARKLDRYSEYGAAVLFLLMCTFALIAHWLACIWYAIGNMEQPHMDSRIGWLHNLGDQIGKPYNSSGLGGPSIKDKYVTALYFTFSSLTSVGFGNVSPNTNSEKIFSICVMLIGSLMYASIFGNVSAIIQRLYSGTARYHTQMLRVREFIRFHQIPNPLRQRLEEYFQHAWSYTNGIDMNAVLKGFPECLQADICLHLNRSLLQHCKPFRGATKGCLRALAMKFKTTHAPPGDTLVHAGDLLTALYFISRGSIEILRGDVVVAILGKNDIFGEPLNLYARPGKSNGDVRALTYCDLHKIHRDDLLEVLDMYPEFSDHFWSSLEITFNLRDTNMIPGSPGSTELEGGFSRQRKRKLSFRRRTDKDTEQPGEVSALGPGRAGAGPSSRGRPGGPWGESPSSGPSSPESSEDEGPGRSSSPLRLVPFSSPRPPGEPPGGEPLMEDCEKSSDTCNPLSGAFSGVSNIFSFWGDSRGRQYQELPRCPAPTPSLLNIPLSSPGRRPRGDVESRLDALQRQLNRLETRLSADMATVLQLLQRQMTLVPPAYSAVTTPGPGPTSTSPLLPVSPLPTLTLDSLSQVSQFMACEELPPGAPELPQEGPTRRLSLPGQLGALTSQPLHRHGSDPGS
# ASSAY TEXT: Inhibition of human ERG expressed in HEK cells at 300 uM
# Format: cell-based, HEK293
# TEST PARAMETERS: HEK cells expressing human ERG
Give true when the value for inhibition at 300 µM is at least 70%. Give false when it is less.

SMILES ENTRY	CLASS LABEL
CC[C@H]1OC(=O)[C@H](C)[C@@H](O[C@H]2C[C@@](C)(OC)[C@@H](O)[C@H](C)O2)[C@H](C)[C@@H](O[C@@H]2O[C@H](C)C[C@H](N(C)C(C)C)[C@H]2O)[C@](C)(O)C[C@@H](C)[C@H](OCC(=O)NC(C)C)[C@H](C)[C@@H](O)[C@]1(C)O	true
CC[C@H]1OC(=O)[C@H](C)[C@@H](O[C@H]2C[C@@](C)(OC)[C@@H](O)[C@H](C)O2)[C@H](C)[C@@H](O[C@@H]2O[C@H](C)C[C@H](N(C)C(C)C)[C@H]2O)[C@](C)(O)C[C@@H](C)[C@H](OCC(=O)Nc2cnccn2)[C@H](C)[C@@H](O)[C@]1(C)O	true
CC[C@H]1OC(=O)[C@H](C)[C@@H](O[C@H]2C[C@@](C)(OC)[C@@H](O)[C@H](C)O2)[C@H](C)[C@@H](O[C@@H]2O[C@H](C)C[C@H](N(C)C(C)C)[C@H]2O)[C@](C)(O)C[C@@H](C)[C@H](OCC(=O)NC)[C@H](C)[C@@H](O)[C@H]1C	false
CC[C@H]1OC(=O)[C@H](C)[C@@H](O[C@H]2C[C@@](C)(OC)[C@@H](O)[C@H](C)O2)[C@H](C)[C@@H](O[C@@H]2O[C@H](C)C[C@H](N(C)C(C)C)[C@H]2O)[C@](C)(O)C[C@@H](C)[C@H](O)[C@H](C)[C@@H](O)[C@]1(C)O	true
CC[C@H]1OC(=O)[C@H](C)[C@@H](O[C@H]2C[C@@](C)(OC)[C@@H](O)[C@H](C)O2)[C@H](C)[C@@H](O[C@@H]2O[C@H](C)C[C@H](N(C)C(C)C)[C@H]2O)[C@](C)(O)C[C@@H](C)[C@H](OCCCC(=O)NC)[C@H](C)[C@@H](O)[C@]1(C)O	false
CC[C@H]1OC(=O)[C@H](C)[C@@H](O[C@H]2C[C@@](C)(OC)[C@@H](O)[C@H](C)O2)[C@H](C)[C@@H](O[C@@H]2O[C@H](C)C[C@H](N(C)C(C)C)[C@H]2O)[C@](C)(O)C[C@@H](C)[C@H](OCC(=O)NC2CCOCC2)[C@H](C)[C@@H](O)[C@]1(C)O	false
CC[C@H]1OC(=O)[C@H](C)[C@@H](O[C@H]2C[C@@](C)(OC)[C@@H](O)[C@H](C)O2)[C@H](C)[C@@H](O[C@@H]2O[C@H](C)C[C@H](N(C)C3CCC3)[C@H]2O)[C@](C)(O)C[C@@H](C)[C@H](OCC(=O)NC)[C@H](C)[C@@H](O)[C@]1(C)O	false
